Kindly supply the reported Phage binding ELISA signal, Anti-PSMA Fab values for the records listed here.
TARGET_SYSTEM: T1, PSMA Fab (006 PSMA Fab) (biotinylated (site not stated))
T1 construct: also called Anti-PSMA Fab; anti-PSMA Fab
PROTOCOL_NOTES: clonal phage ELISA on biotinylated PSMA Fab captured on neutravidin plate, blocking buffer alone; anti-M13 HRP detection
Where no end group is shown, it is not given here.
One number for each entry.

Example entries begin here.
Identify the reported Phage binding ELISA signal, Anti-PSMA Fab for the following entry. GSPFCVPLWMCEGF (peptide, not shown: large carriers, Clonal phage of the peptide-180 library, tested as crude phage supernatant) [Phage-3769] 1.35

Identify the reported Phage binding ELISA signal, Anti-PSMA Fab for the following entry. TTPMCVPAWMCSGM (peptide, not shown: large carriers, Clonal phage of the peptide-180 library, tested as crude phage supernatant) [Phage-3770] 1.34

Identify the reported Phage binding ELISA signal, Anti-PSMA Fab for the following entry. ENRMCIPEWMCQAS (peptide, not shown: large carriers, Clonal phage of the peptide-180 library, tested as crude phage supernatant) [Phage-3764] 1.36

In the following, a different binder is considered.
Identify the reported Phage binding ELISA signal, Anti-PSMA Fab for the following entry. YETVCKPLWMCTGF (peptide, not shown: large carriers, cysteine pairing not given here; also: displayed on phage as pIII fusion, Clonal phage of the peptide-180 library, tested as crude phage supernatant) [Phage-3758] 1.36

All values here come from patent US20260242478A1.
